These data points were gathered from patent US20240409645A1.

koff reference
# experimental.system: T1, human IL-2Rβ (human, UniProt P14784 27-240, limits assumed)
# T1 construct: Recombinant protein, coated (ELISA) or immobilised on CM5 (SPR); also called hu IL-2R; interleukin 2 receptor β-chain
# T1 sequence: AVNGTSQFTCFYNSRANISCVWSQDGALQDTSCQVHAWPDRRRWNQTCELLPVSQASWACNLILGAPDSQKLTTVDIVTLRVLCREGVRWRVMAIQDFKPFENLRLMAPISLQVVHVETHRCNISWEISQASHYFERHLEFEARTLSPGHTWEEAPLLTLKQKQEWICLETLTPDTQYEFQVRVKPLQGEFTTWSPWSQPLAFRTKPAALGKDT
# test.description: SPR (Biacore), P.E. off-rate ranking
Reply numerically in s⁻¹, unit not repeated.

>>> experimental_value("FJ1427_P035MP02C12 (VHH, soluble VHH in periplasmic extract; also called clone nr) VHH: EVQLVESGGGSVQAGGSLRLSCAASGRTFSDYTMGWFRQAPGKEREFVVAITGTGHTTDMPDSVEGRFTISRDNAKNTIYLDMKNLKPGDTAVYYCASARGLPVTPLGDIIYWGEGTLVTVSS")
0.00106
>>> experimental_value("FJ1427 P035MP03B04 (VHH, soluble VHH in periplasmic extract; also called clone nr) VHH: QVQLVESGGGLVQTGGSLRLSCAASGSQFINDVMGWYRQVPGKQRELVADMDDTGSTKYADSVKGRFTILRDSVKNTAYLQMSNLKPEDTGVYYCKAGLWIKGRHSDYWGQGTQVTVSS")
0.00043
>>> experimental_value("FJ1427 P035MP03F09 (VHH, soluble VHH in periplasmic extract; also called clone nr) VHH: EVQLVESGGGLVQAGGSLTLSCAASGRAFSNYPVGWFRQAPGKEREFVAAITWLSGSTLYADSVEGRFTISRDNAKNTVYLLMSSLKPEDTALYFCAAALKTITRGQNDYSYWGQGTQVTVSS")
0.000347
>>> experimental_value("FJ1427 P035MP03E07 (VHH, soluble VHH in periplasmic extract; also called clone nr) VHH: QVQLVESGGGLVQAGGSLRLSCAVSGDVFVRYTMAWFRQAPGKEREFVATVTDSGRTTEYVDSVKGRFTVSRDNAKNTVYLQMNNLKPEDTAVYYCAANTDYFRIRSLDANTWGQGTQVTVSS")
0.00168
>>> experimental_value("FJ1427_P035MP03B02 (VHH, soluble VHH in periplasmic extract; also called clone nr) VHH: EVQLVESGGGLVQVGDSLRLSCAASGRTVGSANMGWFRQAPGKEREFVAVITWSTGSTVYADSVKGRFTISRDNAKNTVYLDMSSLKPDDTAVYYCAADVYPYSGNLNIMDYWGKGTLVTVSS")
0.00241
>>> experimental_value("FJ1427 P035MP03C06 (VHH, soluble VHH in periplasmic extract; also called clone nr) VHH: QVQLVESGGGLVQAGGSLRLACALSGDVFVRYTMAWFRQAPGKEREFVASVTDSGRTTDYVASVQGRFTVSRDNNKNTVYLQMNSLKPEDTAVYYCAANTDYFQIRSLDRNTWGQGTQVTVSS")
0.000658
>>> experimental_value("FJ1427_P035MP03F03 (VHH, soluble VHH in periplasmic extract; also called clone nr) VHH: QVQLVESGGTLVQTGGSLRLSCVVSGSHFISDVMGWYRQVPGKQRELVADMADGGSAKYGDSVKGRFTIVRDSVKNTVYLQMSSLNPEDTGVYYCKAGLWIKGRHSDYWGQGTQVTVTS")
0.000361

Kindly review the next binder as well.
Given the entry FJ1427_P035MP03B03 (VHH, soluble VHH in periplasmic extract; also called clone nr; 210) VHH: QLQLVESGGGLVQTGGSLRLSCAVSGSRFISDVMGWYRQVPGKQRELVADMADGGSAKYADSVKGRFSILRDSVKNTVYLQMSSLKPEDTGIYYCKAGLWIAGRHSDYWGQGTQVTVSS , report its measured koff.
0.000499
